B1: glmS ribozyme (parent)
chain: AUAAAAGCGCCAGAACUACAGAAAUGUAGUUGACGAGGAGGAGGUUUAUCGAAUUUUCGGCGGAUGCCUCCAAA

- Variants of: B1
- METHOD: self-cleavage kobs at 40 uM GlcN6P; higher = faster cleavage; RNA array
- ASSAY SETUP: with glucosamine-6-phosphate
Variants at the floor of the assay were thinned out.
PARAMETER MEASURED: self-cleavage kobs at 40 uM GlcN6P

Below, 3 variants whose answers are already recorded.
{"columns": ["SEQUENCE CHANGE", "self-cleavage kobs at 40 uM GlcN6P"],
 "data": [
  ["A6C G29U G32A U45A G60A", "< 1e-05 s⁻¹"],
  ["A48U A53C", "< 1e-05 s⁻¹"],
  ["A6U C16U U47A G63U", "< 1e-05 s⁻¹"]
]}

self-cleavage kobs at 40 uM GlcN6P recorded for this variant, A36C C70A , is 3.5e-05 s⁻¹

Per the records, this variant ( U30G G40U ) has self-cleavage kobs at 40 uM GlcN6P equal to 3.53e-05 s⁻¹

The recorded self-cleavage kobs at 40 uM GlcN6P for entry G29U A39G equals 0.000218 s⁻¹

Noted for A42U U46G C50U C70U : its self-cleavage kobs at 40 uM GlcN6P reads < 1e-05 s⁻¹

Just so you know, measured self-cleavage kobs at 40 uM GlcN6P for G40C U49C came out at < 1e-05 s⁻¹

The variant G51A A64C showed self-cleavage kobs at 40 uM GlcN6P equal to < 1e-05 s⁻¹

Form field self-cleavage kobs at 40 uM GlcN6P, entry A12U A36U G44A : < 1e-05 s⁻¹

The reported value for G35C U54A in terms of self-cleavage kobs at 40 uM GlcN6P is < 1e-05 s⁻¹

Data point: A53U U56C ; self-cleavage kobs at 40 uM GlcN6P = 5.21e-05 s⁻¹

Record summary for A42G A48U G62U C71U : reported self-cleavage kobs at 40 uM GlcN6P = < 1e-05 s⁻¹

Kindly note the recorded self-cleavage kobs at 40 uM GlcN6P for G29C U55C , which is 5.28e-05 s⁻¹

For record G32U A36G U45C C68G the listed self-cleavage kobs at 40 uM GlcN6P is < 1e-05 s⁻¹

The variant listed as C16U G40C shows self-cleavage kobs at 40 uM GlcN6P equal to 0.00011 s⁻¹

GET /value?item= A14U U56C &field=self-cleavage kobs at 40 uM GlcN6P returns 5.38e-05 s⁻¹

Per the records, this variant ( C10U C11U U56G G62U ) has self-cleavage kobs at 40 uM GlcN6P equal to < 1e-05 s⁻¹

The measured values listed here are drawn from the supplement of paper PMC7125110.
